Test system: KM12 colon
Assay: NCI tumour cell line growth inhibition, 48 h
readout_name: TGI (µM)
Answers are plain numbers, in µM.

# count of solved cases: 4
# compound, unit_string, TGI
data = [
    ("Cc1ccc2c(n1)C(=O)c1[nH]c3ccccc3c1C2=O", "µM", 19.6),
    ("O=[N+]([O-])c1cc2oc(COc3ccccc3)nc2cc1Cl", "µM", 51.3),
    ("Cc1ccc(Cl)cc1Nc1nc(C(F)(F)F)ccc1C(=O)N1CCN(c2ccc(F)cc2)CC1", "µM", 23.4),
    ("Clc1coc2nc3ccccc3c(Nc3ccc4c(c3)OCO4)c12", "µM", 12.5),
]

Dear colleague, could you please provide TGI for the compounds listed below?
1. CC(=O)OC1Oc2ccccc2-c2oc(=O)c(-c3cc(=O)oc4cc(O)ccc34)cc21 (stereo not given)
2. Cc1ccc(S(=O)(=O)N/N=C/C(=C/c2ccc(Cl)cc2)CC(/C=N/NS(=O)(=O)c2ccc(C)cc2)=C\c2ccc(Cl)cc2)cc1

A)
[46.4, 47.2]

* * *

Test system: SF-268 CNS
Assay: NCI tumour cell line growth inhibition, 48 h
Assign log10 TGI to each entry below.
Reminder: these figures are log10 of reported TGI, in µM before transformation.

# count of solved cases: 3
# compound, log10 TGI
data = [
    ("CC(=O)Nc1cc(C(=O)Nc2cc(C(=O)N3CC(CCl)c4c3cc(N)c3ccccc43)nn2C)nn1C (stereo unspecified)", -0.89),
    ("S=C(NCc1ccccc1)c1nc[nH]c1C(=S)NCc1ccccc1", 1.30),
    ("CN(C)Cc1cc(C(=O)/C=C/c2ccc(Cl)cc2)cc(CN(C)C)c1O", 1.85),
]

Dear colleague, could you please provide log10 TGI for the compounds listed below?
1. C[N+](C)([O-])CCC=C1c2ccccc2CCc2ccccc21
2. COc1ccc(OC)c(NC(=O)C(=O)NNC(=O)c2sc(NNC(C)=O)nc2C)c1
3. Cc1nc2ccccc2c(=O)n1NC(=O)c1ccc(CS)cc1
4. Oc1ccc(Cl)cc1Cc1cc(Cl)cc(Cl)c1O
5. CNCCCn1cc(C2=C(c3cn(C)c4ccccc34)C(=O)NC2=O)c2ccccc21
6. CCC[CH2][Sn]([CH2]CCC)([CH2]CCC)[O]C(=O)CC

A)
[1.74, 1.88, 1.72, 1.76, 1.08, -0.46]

Dear colleague, could you please provide log10 TGI for the compounds listed below?
1. CCC[CH2][Ge]([CH2]CCC)([CH2]CCC)[O]C(=O)CC(=O)c1ccccc1
2. Cc1ccc(Cl)cc1Nc1nc(C(F)(F)F)ccc1C(=O)N1CCN(c2ccc(F)cc2)CC1

A)
[1.33, 1.56]

* * *

Tested on: ACHN renal
Assay: NCI tumour cell line growth inhibition, 48 h; in the data active = GI50 below about 0.43 µM; inactive = the rest
// allowed return values: active, inactive

A selection of reference data follows.
# compound, system_under_test, label_value
measured = [
    ("CC(C)=C[C@@H]1C[C@H](C)[C@H]2CC[C@H](C)C3=C2[C@](O)(OC3=O)[C@]1(C)O", "ACHN renal", "inactive"),
    ("Cc1c2cccnc2c(C)c2c1c1cc(CO)ccc1n2C", "ACHN renal", "inactive"),
    ("CCOc1nc(-c2ccccc2)cc2c(O)c(-c3nnco3)[nH]c(=O)c12", "ACHN renal", "inactive"),
    ("O=S(=O)(Nc1cc(F)cc(Cl)c1)c1ccc(-c2cnc(C3CC3)o2)cc1", "ACHN renal", "inactive"),
    ("C=CC1CC12C(=O)C1OC2(C)C2C(=O)c3cc4ccccc4cc3C(=O)C12 (stereo not drawn)", "ACHN renal", "inactive"),
]

Q) Short answer needed: outcome of this test for "CNCCCn1cc(C2=C(c3cn(C)c4ccccc34)C(=O)NC2=O)c2ccccc21" ?
A) inactive

Q) Short answer needed: outcome of this test for Cc1ccc(C(SCC(N)C(=O)O)(c2ccccc2)c2ccc(C)cc2)cc1 (stereo not drawn) ?
A) inactive

Q) Short answer needed: outcome of this test for "COCCOc1cc(F)c2c(Nc3ccc(NC(=O)Cn4cc(C(C)C)nn4)cc3)ncnc2c1" ?
A) inactive

Q) Short answer needed: outcome of this test for CC1OC2CC(=O)OC2C2=C1C(=O)c1c(O)cccc1C2=O (stereo not drawn) ?
A) active

Q) Short answer needed: outcome of this test for "COc1ccc(C(=O)c2cc(OC)c(C)c(OC)c2)cc1OC(=O)CCl" ?
A) inactive

Q) Short answer needed: outcome of this test for "COC(=O)c1cc2c(cc1O)[C@@H](NC(C)=O)CCc1cc(OC)c(OC)c(OC)c1-2" ?
A) active

Q) Short answer needed: outcome of this test for "C/C(=C\CCc1ccoc1)CC/C=C(\C)CCCC1=CC(=O)OC1" ?
A) inactive

Q) Short answer needed: outcome of this test for "CC(C)c1ccc(Nc2ccc3c(OCCCN4CCN(C)CC4)cccc3n2)cc1" ?
A) inactive
